- Test system: UACC-62 melanoma
- Test protocol: NCI tumour cell line growth inhibition, 48 h
Give GI50 for every item shown.

Would you mind listing GI50 for each of the following compounds?
1. O=P1(S)OC[C@H]2O[C@@H]3[C@H](F)[C@@H]2OP(O)(=S)OC[C@H]2O[C@H]([C@H](F)[C@@H]2O1)n1cnc2c(ncnc21)NC/C=C/CNc1ncnc2c1ncn23 (some centres undefined)
2. COc1ccc(C(O)c2cc3c(N)c(C(=O)Nc4cccc(Cl)c4)sc3nc2C)cc1 (centres undefined)
3. Cc1ccc(S(=O)(=O)c2nc(-c3ccccc3)oc2S(C)=O)cc1 (centres undefined)

RESULT:
1: > 100 µM; 2: 2.14 µM; 3: 1.5 µM

Would you mind listing GI50 for each of the following compounds?
1. O=c1[nH]c2nc(NC3CCOCC3)ncc2cc1Oc1ccc(F)cc1F
2. Cc1nc2c(n1C)C(=O)c1ccccc1C2=O
3. CC(=O)[O-].[Mn+3].[O-]c1ccccc1C=NCCNCCN=Cc1ccccc1[O-]
4. COc1ccc(C(=O)NNc2nc(Cl)nc(N3CCN(C(c4ccccc4)c4ccccc4)CC3)n2)cc1
5. Cc1nc2ccc(NC(=O)CCNC(=O)CCCc3ccc(CC(C(=O)O)C(=O)O)cc3)cc2s1

RESULT:
1. > 25 µM
2. 56 µM
3. > 100 µM
4. 1.82 µM
5. > 100 µM

QUERY: Which GI50 value is on record for `CCCCCC[C@H](C)Nc1nc2ccccc2c2occc12` ?
RESULT: 11.6 µM

###

- Tested on: HCC-2998 colon
- Test protocol: NCI tumour cell line growth inhibition, 48 h
Readout kind: TGI (µM)
Answers are plain numbers, in µM.

The examples below pair each entry with its known result.
1) COc1cc2c(cc1OC)C(=O)/C(=C/c1cc(-c3ccc4c(c3)OCO4)n[nH]1)C2 3.44
2) Cc1cc(OC(=O)NCn2cc(-c3ccccc3)nn2)ccc1Cl 39.2
3) C/C(=N\Nc1nc2ccccc2n1C)c1cc2ccccc2cn1 41.9

QUERY: Which TGI value is on record for `Cc1cc2c([nH]c3ccccc32)c(O)c1-c1c(C)cc2c([nH]c3ccccc32)c1O` ?
RESULT: 22.4

###

Give TGI for every item shown.
- Tested on: NCI-H226 lung
- Test protocol: NCI tumour cell line growth inhibition, 48 h

Would you mind listing TGI for each of the following compounds?
1. NN=C(CC(O)(C(F)(F)Cl)C(F)(F)Cl)CC(O)(C(F)(F)Cl)C(F)(F)Cl
2. C#Cc1c(C)c(/C=C/C(C)=C/C(=O)OC)n(C)c1C
3. Cc1cc(O)c(C2=NN(c3ccc(S(N)(=O)=O)cc3)C(c3ccc(Cl)cc3)C2)c(C)c1Cl (configuration not stated)

RESULT:
1. > 10 µM
2. > 100 µM
3. 24.1 µM

###

- System: OVCAR-5 ovarian
- Test protocol: NCI tumour cell line growth inhibition, 48 h
Give TGI for every item shown.
Answers are plain numbers, in µM.

Would you mind listing TGI for each of the following compounds?
1. O=c1[nH]c2ccccc2n1CCCN1CCC(n2c(=O)[nH]c3cc(Cl)ccc32)CC1
2. CC(C)(C)CC(C)(C)c1cc(O)c(O)c(CN2CCCCC2)c1

RESULT:
43.1
31.8

###

- System: SK-MEL-5 melanoma
- Test protocol: NCI tumour cell line growth inhibition, 48 h
Give log10 TGI for every item shown.
The common logarithm of TGI in µM is what is listed.

The examples below pair each entry with its known result.
Compound	log10 TGI
O=C1c2c(O)cccc2-c2nn(CCNCCO)c3ccc(NCCNCCO)c1c23	0.05
C=C1CCC2(C#N)[C@H]3[C@H](CC[C@@H]2C)[C@@H](C)C[C@@H](CC(C)(C)NC(=O)CN2CCC2=O)[C@H]13 (stereo not given in full)	1.21
C#Cc1nc2ccccc2c(=O)[nH]1	0.30
COC(=O)COc1ccc(/C=C2/N=C(c3ccccc3)N(c3c(C)n(C)n(-c4ccccc4)c3=O)C2=O)cc1	1.78
CN(C)Cc1cc(C(=O)/C=C/c2ccccc2)cc(CN(C)C)c1O	1.58

Turning now to a further record.
QUERY: Which log10 TGI value is on record for `c1ccc2c(-c3nc(-c4c[nH]c5ccncc45)cs3)c[nH]c2c1` ?
RESULT: 0.48

###

- System: SW-620 colon
- Test protocol: NCI tumour cell line growth inhibition, 48 h
Readout kind: GI50

The examples below pair each entry with its known result.
Compound	GI50
O=C(c1ccccc1)c1c(NCC(O)CN2CCOCC2)n(Cc2ccccc2)c(=O)n(Cc2ccccc2)c1=O (stereo not given)	52900 nM
CSCCCNC(=O)c1ccc2c(c1)/C(=C/c1[nH]c(C)cc1C)C(=O)N2	846 nM
Cc1c(-c2ccnc(N)n2)c2c(n1Cc1ccccc1)C(=O)c1ccccc1C2=O	6820 nM
COc1ccc(C(O)c2cc3c(N)c(C(=O)Nc4cccc(Cl)c4)sc3nc2C)cc1 (stereo not given)	1000 nM

QUERY: Which GI50 value is on record for `Cc1nc(Nc2ccccn2)sc1C(=O)/C=C/c1ccc(Cl)cc1` ?
RESULT: 445 nM

###

- System: OVCAR-8 ovarian
- Test protocol: NCI tumour cell line growth inhibition, 48 h
Give GI50 for every item shown.

Compound	GI50
CCN(c1cc(-c2ccc(CN3CCOCC3)cc2)cc(C(=O)NCc2c(C)cc(C)[nH]c2=O)c1C)C1CCOCC1	37.9 µM
COc1ccc(-c2nc(-c3nc4ccc(F)cc4[nH]3)c3ccccn23)cc1	3.76 µM
COc1cc2c(cc1OC)C(=O)/C(=C/c1cc(-c3ccc4c(c3)OCO4)n[nH]1)C2	1.57 µM
Cc1nc(Nc2ccccn2)sc1C(=O)/C=C/c1ccc(Cl)cc1	0.472 µM
O=c1[nH]c2nc(NC3CCOCC3)ncc2cc1Oc1ccc(F)cc1F	> 25 µM

Would you mind listing GI50 for each of the following compounds?
1. CC(C)(C)OC(=O)NCCCn1c2c(c3ccccc3c1=O)C(=O)c1ccccc1-2
2. Cc1nc2ccc(NC(=O)CCNC(=O)CCCc3ccc(CC(C(=O)O)C(=O)O)cc3)cc2s1
3. COc1cnc2c(c1)C(=O)c1c-2n(CCCNCCO)c(=O)c2ccncc12
4. Cc1nc(Nc2cccnc2)sc1C(=O)/C=C/c1ccc(Cl)cc1

RESULT:
["13.3 µM", "> 100 µM", "0.876 µM", "3.84 µM"]

Would you mind listing GI50 for each of the following compounds?
1. CN(C)c1nc2ccccc2c2c1c1c(n2Cc2ccccc2)-c2ccccc2C1=O
2. O=C([O][Sn]([O]C(=O)c1ccccn1)([c]1ccccc1)[c]1ccccc1)c1ccccn1
3. O=P1(S)OC[C@H]2O[C@@H]3[C@H](F)[C@@H]2OP(O)(=S)OC[C@H]2O[C@H]([C@H](F)[C@@H]2O1)n1cnc2c(ncnc21)NC/C=C/CNc1ncnc2c1ncn23 (stereo partly drawn)
4. C#Cc1nc2ccccc2c(=O)[nH]1
5. CC(=O)[O-].[Mn+3].[O-]c1ccccc1C=NCCNCCN=Cc1ccccc1[O-]
6. C=CC(=O)Nc1cc(N2CCN(CC)CC2)ccc1Nc1cc(N(C)C(=O)Nc2c(Cl)c(OC)cc(OC)c2Cl)ncn1
7. CC(C)=CCC(OC(=O)C=C(C)C)C1=CC(=O)c2c(O)ccc(O)c2C1=O (stereo not drawn)

RESULT:
1: > 100 µM; 2: 11.3 µM; 3: > 100 µM; 4: 0.897 µM; 5: > 100 µM; 6: 4.38 µM; 7: 2.27 µM

Would you mind listing GI50 for each of the following compounds?
1. CC1=C2C(=CO[C@H](C)[C@H]2C)C(=O)C(C(=O)O)=C1O
2. Cc1cc(O)c(C2=NN(c3ccc(S(N)(=O)=O)cc3)C(c3ccc(Cl)cc3)C2)c(C)c1Cl (stereo not drawn)

RESULT:
19.8 µM
5.75 µM

###

- System: M14 melanoma
- Test protocol: NCI tumour cell line growth inhibition, 48 h
Give TGI for every item shown.

The examples below pair each entry with its known result.
Compound	Readout kind	Result
Cc1cc(N(CCC#N)CCC#N)ccc1N=Nc1ccc(Br)cc1	TGI	> 66 µM
COC(=O)C1C(O)C(C)C(O)C(C)C=C(C)C2=C3C(=C(C)C(=O)c4c(O)c(c(C)c(OC(C)=O)c43)NC(=O)C(C)=C/C=C\C(C)C(O)C(C)C1O)OCO2 (stereo not given)	TGI	68.9 µM
O=[N+]([O-])c1cccc(N=Nc2c(O)c(S(=O)(=O)O)cc3cc(S(=O)(=O)O)ccc23)c1	TGI	> 100 µM
COc1cc2c(cc1O)CC1c3c(cc(O)c(OC)c3-2)CCN1C (stereo not given)	TGI	> 100 µM

Turning now to a further record.
QUERY: Form entry - test system: M14 melanoma; read-out: TGI; compound: O=C1CC(c2[nH]nc3ccccc23)C(=O)N1c1ccccc1 (stereo not given)
RESULT: > 100 µM
